Target: PhoP (Salmonella enterica I)
Sequence (A6XC03 whole entry): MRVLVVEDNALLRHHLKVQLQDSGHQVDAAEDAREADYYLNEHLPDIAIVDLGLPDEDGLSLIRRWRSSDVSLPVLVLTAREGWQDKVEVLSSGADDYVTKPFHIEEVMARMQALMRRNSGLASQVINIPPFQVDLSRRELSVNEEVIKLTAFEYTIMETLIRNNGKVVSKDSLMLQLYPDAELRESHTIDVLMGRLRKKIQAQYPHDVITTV
The following compounds are listed with their measured IC50 values.

{"compound": "N#Cc1ccc(OC(=O)c2ccc(NC(=N)N)cc2)cc1", "IC50, µM": 285}
{"compound": "CN(C)CCC(=O)C1(O)CCC2C3CC=C4CC(O)CCC4(C)C3CCC21C (stereo not drawn)", "IC50, µM": 3.6}
{"compound": "O=S(=O)(O)c1ccc2c(N=Nc3c(O)ccc4ccccc34)cccc2c1", "IC50, µM": 12}
{"compound": "O=C(C[n+]1ccc2ccccc2c1)c1ccc2ccc3ccccc3c2c1", "IC50, µM": 14000}
{"compound": "c1ccc(C[n+]2cccc(-c3cc4ccccc4[nH]3)c2)cc1", "IC50, µM": 109}
{"compound": "O=C1c2ccccc2C(=O)c2c1ccc(C(=O)O)c2-c1cccc2ccccc12", "IC50, µM": 11000}
{"compound": "CC(C)c1ccc2c(c1)CCC1C(C)(CN)CCCC21C (stereo not drawn)", "IC50, µM": 20}
{"compound": "CC12CCC(=O)C=C1CCC1C2CCC2(C)C(C(=O)COS(=O)(=O)c3ccc(Br)cc3)CCC12 (stereo not drawn)", "IC50, µM": 17}
